Biological target: HER-2 (Homo sapiens)
Construct: His6 with thrombin site (N); purchased Proqinase (Freiburg, Germany)
Sequence (P04626 679-1255): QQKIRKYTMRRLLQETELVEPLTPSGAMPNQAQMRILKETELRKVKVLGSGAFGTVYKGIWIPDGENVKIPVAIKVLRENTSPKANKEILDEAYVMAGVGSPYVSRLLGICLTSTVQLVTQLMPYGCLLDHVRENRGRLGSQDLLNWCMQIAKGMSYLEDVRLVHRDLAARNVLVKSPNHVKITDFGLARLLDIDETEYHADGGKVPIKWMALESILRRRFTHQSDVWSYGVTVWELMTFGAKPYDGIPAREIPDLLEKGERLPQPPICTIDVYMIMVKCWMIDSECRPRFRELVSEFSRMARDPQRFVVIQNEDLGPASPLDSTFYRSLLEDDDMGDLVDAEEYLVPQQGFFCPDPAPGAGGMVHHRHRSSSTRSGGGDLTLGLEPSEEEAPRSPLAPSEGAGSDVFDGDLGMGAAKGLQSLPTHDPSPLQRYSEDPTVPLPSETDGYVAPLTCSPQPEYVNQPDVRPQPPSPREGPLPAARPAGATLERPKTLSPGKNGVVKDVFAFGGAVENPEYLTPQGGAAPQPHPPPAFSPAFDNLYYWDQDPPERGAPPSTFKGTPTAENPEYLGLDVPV
Experiment: HER-2 Kinase Assay
Format: biochemical
Conditions: value in parentheses
pIC50: −log10 of the molar value.
Threshold check on pIC50: at or above 7 gives Met, strictly below gives Not met.

Answered examples (5):
O=C(Nc1ccc(CCN2CCCCC2)cc1)c1sc2ncnc3c2c1NC(=O)N3c1ccc(Oc2ccccc2)c(Cl)c1 [Cpd 136]	Not met
CN1CCC(NC(=O)c2sc3ncnc4c3c2NC(=O)N4c2ccc3c(ccn3Cc3cccc(F)c3)c2)CC1 [Cpd 92]	Not met
Cc1ccc(N2C(=O)Nc3c(C(=O)NC4CCN(C)CC4)sc4ncnc2c34)cc1Br [Cpd 116]	Not met
CCOC(=O)c1sc2ncnc3c2c1NC(=O)N3c1ccc(Sc2ccccc2)cc1 [Cpd 210]	Not met
CCOC(=O)c1sc2ncnc3c2c1NC(=O)N3c1ccc(Oc2ccc(F)cc2)cc1 [Cpd 101]	Not met

Query: pIC50 >= 7 for O=C(c1sc2ncnc3c2c1NC(=O)N3c1ccc(Oc2ccccc2)cc1)N1CCN(CCN2CCOCC2)CC1 [Cpd 213] ?
Response: Not met

Query: Assess whether reported pIC50 for CCOc1cc(NC(=O)c2sc3ncnc4c3c2NC(=O)N4c2ccc(Oc3ccccc3)cc2)ccc1CN1CCOCC1 [Cpd 207] sits at 7 or higher.
Response: Met

Query: Entry COc1cc(NC(=O)c2sc3ncnc4c3c2NC(=O)N4c2ccc(Oc3ccccc3)cc2)ccc1CN1CCOCC1 [Cpd 176] : is its pIC50 no less than 7?
Response: Met

Query: # check: pIC50 of O=C(Nc1ccc(CCN2CCCCC2)cc1)c1sc2ncnc3c2c1NC(=O)N3c1ccc(Oc2ccccc2)cc1 [Cpd 166] is greater than or equal to 7
Response: Not met

Query: # bool: pIC50 of O=C(Nc1ccc(CN2CCCCC2)cc1)c1sc2ncnc3c2c1NC(=O)N3c1ccc(N2CCOCC2)cc1 [Cpd 124] >= 7
Response: Not met

Query: Reported pIC50 reaches at least 7 for COc1cc(N2C(=O)Nc3c(C(=O)Nc4ccc(OC)c(OC)c4)sc4ncnc2c34)ccc1Br [Cpd 82] ?
Response: Not met

Query: Record COc1cc(NC(=O)c2sc3ncnc4c3c2NC(=O)N4c2ccc(Sc3ccccc3)cc2)ccc1CN1CCOCC1 [Cpd 219] ; criterion: pIC50 no lower than 7. Met?
Response: Met

Query: Exam item: decide whether the reported pIC50 for O=C(NCCN1CCOCC1)c1sc2ncnc3c2c1NC(=O)N3c1ccc(Oc2ccccc2)cc1 [Cpd 105] is at least 7.
Response: Not met

Query: Does pIC50 meet or surpass 7 for O=C(Nc1ccc(CN2CCOCC2)cc1)c1sc2ncnc3c2c1NC(=O)N3c1ccc(Sc2ccccc2)cc1 [Cpd 178] ?
Response: Met

Query: Determine whether this molecule has pIC50 no lower than 7: O=C(Nc1ccc(CCN2CCCCC2)cc1)c1sc2ncnc3c2c1NC(=O)N3c1cccc2ccoc12 [Cpd 251]
Response: Not met

Query: Please indicate if the recorded pIC50 for CCOC(=O)c1sc2ncnc3c2c1NC(=O)N3c1ccc2c(cnn2Cc2cccc(F)c2)c1 [Cpd 78] meets or exceeds 7.
Response: Not met

Query: Identify whether the reported pIC50 of the following molecule is 7 or greater: COc1ccc(N2C(=O)Nc3c(C(=O)Nc4ccc(CN5CCCCC5)cc4)sc4ncnc2c34)cc1Br [Cpd 182]
Response: Not met
